experimental_protocol: Cytotoxicity against HEK293T cells assessed as inhibition of cell growth measured after 72 hrs by CCK-8 method
Assay type: toxicity, cell-based, HEK-293T
conditions: human
experimental_endpoint: IC50 at 72 h (nM)
Number in nM, nothing else.

compound	IC50 at 72 h (nM)
O=C(CCCCCCCCCCC(=O)N1CCN(C(=O)c2cc(Cc3n[nH]c(=O)c4ccccc34)ccc2F)CC1)NCCNc1cccc2c1C(=O)N(C1CCC(=O)NC1=O)C2=O (configuration not stated)	1860

Attention now shifts to the item below.
q: Could you tell me which IC50 at 72 h is on file for NC(=O)c1cccc2cn(-c3ccc([C@@H]4CCCN(CCC5CCN(CCC6CCN(CC7CCN(c8ccc9c(c8)C(=O)N(C8CCC(=O)NC8=O)C9=O)CC7)CC6)CC5)C4)cc3)nc12 (some centres not stated) ?
a: 4130

* * *

system_tested: Protein cereblon/Poly [ADP-ribose] polymerase 1 (Homo sapiens, UniProt P09874+Q96SW2)
experimental_protocol: PROTAC activity at CRBN/PARP1 in human HCT-116 cells assessed as degradation of PARP1
Type: cell-based
Sequence (P09874 whole entry): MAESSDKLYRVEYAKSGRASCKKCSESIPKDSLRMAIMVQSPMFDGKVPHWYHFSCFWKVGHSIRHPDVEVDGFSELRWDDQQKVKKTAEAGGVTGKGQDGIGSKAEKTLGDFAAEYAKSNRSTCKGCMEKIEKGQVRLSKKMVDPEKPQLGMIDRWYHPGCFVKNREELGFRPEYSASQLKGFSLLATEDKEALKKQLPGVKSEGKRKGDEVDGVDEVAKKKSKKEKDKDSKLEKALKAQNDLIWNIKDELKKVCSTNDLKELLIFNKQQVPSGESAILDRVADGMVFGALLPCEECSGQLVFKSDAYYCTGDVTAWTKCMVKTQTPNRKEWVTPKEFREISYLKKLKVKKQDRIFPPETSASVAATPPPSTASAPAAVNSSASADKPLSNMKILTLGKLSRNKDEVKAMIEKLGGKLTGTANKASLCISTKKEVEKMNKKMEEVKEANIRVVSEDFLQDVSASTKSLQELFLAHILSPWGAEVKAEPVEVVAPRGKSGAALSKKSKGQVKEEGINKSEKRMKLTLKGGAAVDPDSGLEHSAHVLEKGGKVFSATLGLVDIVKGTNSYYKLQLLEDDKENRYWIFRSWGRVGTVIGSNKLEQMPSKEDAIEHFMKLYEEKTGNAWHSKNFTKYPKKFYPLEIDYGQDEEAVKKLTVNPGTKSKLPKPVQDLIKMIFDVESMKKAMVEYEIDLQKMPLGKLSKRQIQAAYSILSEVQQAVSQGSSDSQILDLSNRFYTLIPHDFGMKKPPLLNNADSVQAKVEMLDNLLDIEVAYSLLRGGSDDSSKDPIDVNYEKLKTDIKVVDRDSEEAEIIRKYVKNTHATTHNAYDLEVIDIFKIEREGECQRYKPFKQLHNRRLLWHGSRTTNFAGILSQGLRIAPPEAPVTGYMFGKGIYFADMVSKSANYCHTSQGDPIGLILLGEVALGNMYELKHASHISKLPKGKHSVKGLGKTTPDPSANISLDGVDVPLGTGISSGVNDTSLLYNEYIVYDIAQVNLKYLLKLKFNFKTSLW
Sequence (Q96SW2 whole entry): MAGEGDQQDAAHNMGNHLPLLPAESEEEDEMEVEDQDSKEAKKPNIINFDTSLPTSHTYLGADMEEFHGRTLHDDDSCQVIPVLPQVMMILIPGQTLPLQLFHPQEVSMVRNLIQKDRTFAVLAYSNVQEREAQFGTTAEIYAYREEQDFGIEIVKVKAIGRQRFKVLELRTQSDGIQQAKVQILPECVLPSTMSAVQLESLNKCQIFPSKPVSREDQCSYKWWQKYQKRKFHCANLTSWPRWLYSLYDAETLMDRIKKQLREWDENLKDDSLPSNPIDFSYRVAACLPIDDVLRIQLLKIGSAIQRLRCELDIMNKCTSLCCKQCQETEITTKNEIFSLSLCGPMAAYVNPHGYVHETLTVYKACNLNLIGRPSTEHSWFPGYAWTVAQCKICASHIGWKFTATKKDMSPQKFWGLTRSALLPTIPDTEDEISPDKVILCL
DC50 reference

compound	DC50
NC(=O)c1cccc2cn(-c3ccc([C@@H]4CCCN(C(=O)COCCOCCOCCOCCNc5ccc6c(c5)C(=O)N(C5CCC(=O)NC5=O)C6=O)C4)cc3)nc12 (some centres undefined)	0.06 µM
NC(=O)c1cccc2cn(-c3ccc([C@@H]4CCCN(C(=O)CC5CCN(C(=O)CC6CCN(c7ccc8c(c7)C(=O)N(C7CCC(=O)NC7=O)C8=O)CC6)CC5)C4)cc3)nc12 (some centres undefined)	> 20 µM
NC(=O)c1cccc2cn(-c3ccc([C@@H]4CCCN(C(=O)CCCCCCNc5ccc6c(c5)C(=O)N(C5CCC(=O)NC5=O)C6=O)C4)cc3)nc12 (some centres undefined)	> 20 µM

Then this compound:
q: API: value(readout= DC50, system= Protein cereblon/Poly [ADP-ribose] polymerase 1 (Homo sapiens, UniProt P09874+Q96SW2), query= NC(=O)c1cccc2cn(-c3ccc([C@@H]4CCCN(C(=O)CC5CCN(CCC6CCN(CC7CN(c8ccc9c(c8)C(=O)N(C8CCC(=O)NC8=O)C9=O)C7)CC6)CC5)C4)cc3)nc12 (some centres undefined) )
a: 0.5 µM

* * *

Listed here are molecules together with their documented Emax.
system_tested: Protein cereblon/Poly [ADP-ribose] polymerase 1 (Homo sapiens, UniProt P09874+Q96SW2)
experimental_protocol: PROTAC activity at CRBN/PARP1 in human HCT-116 cells assessed as maximum degradation of PARP1 relative to control
Type: cell-based
Sequence (P09874 2-1014 limits assumed): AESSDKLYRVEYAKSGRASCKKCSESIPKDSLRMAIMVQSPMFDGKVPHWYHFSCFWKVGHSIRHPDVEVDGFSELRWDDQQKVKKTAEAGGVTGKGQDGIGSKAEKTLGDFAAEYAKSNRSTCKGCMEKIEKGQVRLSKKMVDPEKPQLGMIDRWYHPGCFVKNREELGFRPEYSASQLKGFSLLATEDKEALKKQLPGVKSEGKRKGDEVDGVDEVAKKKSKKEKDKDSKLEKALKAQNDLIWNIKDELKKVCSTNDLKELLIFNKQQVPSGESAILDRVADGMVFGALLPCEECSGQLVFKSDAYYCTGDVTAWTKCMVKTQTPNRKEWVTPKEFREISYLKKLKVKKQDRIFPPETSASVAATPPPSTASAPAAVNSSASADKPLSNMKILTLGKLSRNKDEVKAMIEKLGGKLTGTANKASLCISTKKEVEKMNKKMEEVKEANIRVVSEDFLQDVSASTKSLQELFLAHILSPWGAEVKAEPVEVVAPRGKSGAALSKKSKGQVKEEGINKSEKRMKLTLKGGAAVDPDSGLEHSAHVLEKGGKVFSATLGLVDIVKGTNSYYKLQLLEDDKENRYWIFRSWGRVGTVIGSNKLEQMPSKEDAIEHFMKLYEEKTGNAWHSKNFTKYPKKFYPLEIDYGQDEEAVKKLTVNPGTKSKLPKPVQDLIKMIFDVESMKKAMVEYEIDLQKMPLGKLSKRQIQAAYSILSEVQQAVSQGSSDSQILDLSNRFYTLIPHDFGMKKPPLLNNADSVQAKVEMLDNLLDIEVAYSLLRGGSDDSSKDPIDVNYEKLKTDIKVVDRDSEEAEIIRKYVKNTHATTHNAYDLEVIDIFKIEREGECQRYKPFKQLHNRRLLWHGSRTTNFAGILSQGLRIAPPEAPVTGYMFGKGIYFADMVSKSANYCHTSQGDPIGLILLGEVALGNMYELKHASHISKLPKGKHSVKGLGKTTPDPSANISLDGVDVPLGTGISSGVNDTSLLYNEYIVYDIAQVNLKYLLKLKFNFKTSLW
Sequence (Q96SW2 whole entry partner): as the sequence (Q96SW2 whole entry) above
Express it in %; write the number only.

Solved entries:
molecule	system_tested	Emax, %
NC(=O)c1cccc2cn(-c3ccc([C@@H]4CCCN(C(=O)CCCCNc5ccc6c(c5)C(=O)N(C5CCC(=O)NC5=O)C6=O)C4)cc3)nc12 (stereo partly drawn)	Protein cereblon/Poly [ADP-ribose] polymerase 1 (Homo sapiens, UniProt P09874+Q96SW2)	29.8
NC(=O)c1cccc2cn(-c3ccc([C@@H]4CCCN(C(=O)CC5CCN(CCC6CCN(CC7CCN(c8ccc9c(c8)C(=O)N(C8CCC(=O)NC8=O)C9=O)C7)CC6)CC5)C4)cc3)nc12 (stereo partly drawn)	Protein cereblon/Poly [ADP-ribose] polymerase 1 (Homo sapiens, UniProt P09874+Q96SW2)	33.6
NC(=O)c1cccc2cn(-c3ccc([C@@H]4CCCN(C(=O)C5CCN(CC6CCN(c7ccc8c(c7)C(=O)N(C7CCC(=O)NC7=O)C8=O)C6)CC5)C4)cc3)nc12 (stereo partly drawn)	Protein cereblon/Poly [ADP-ribose] polymerase 1 (Homo sapiens, UniProt P09874+Q96SW2)	32.8

q: Recorded Emax of NC(=O)c1cccc2cn(-c3ccc([C@@H]4CCCN(C(=O)COCCOCCNc5ccc6c(c5)C(=O)N(C5CCC(=O)NC5=O)C6=O)C4)cc3)nc12 (stereo partly drawn) , please.
a: 49.1

q: Now the same for NC(=O)c1cccc2cn(-c3ccc([C@@H]4CCCN(C(=O)C5CCN(C(=O)C6CCN(c7ccc8c(c7)C(=O)N(C7CCC(=O)NC7=O)C8=O)CC6)CC5)C4)cc3)nc12 (stereo partly drawn)
a: 15.7

q: Another molecule: NC(=O)c1cccc2cn(-c3ccc([C@@H]4CCCN(C(=O)COCCOCCOCCNc5ccc6c(c5)C(=O)N(C5CCC(=O)NC5=O)C6=O)C4)cc3)nc12 (stereo partly drawn)
a: 37.4

q: Likewise for NC(=O)c1cccc2cn(-c3ccc([C@@H]4CCCN(C(=O)CCCCCCCCNc5ccc6c(c5)C(=O)N(C5CCC(=O)NC5=O)C6=O)C4)cc3)nc12 (stereo partly drawn) ?
a: 58.8

q: Note, next up: NC(=O)c1cccc2cn(-c3ccc([C@@H]4CCCN(C(=O)CC5CCN(C(=O)CC6CCN(CC7CCN(c8ccc9c(c8)C(=O)N(C8CCC(=O)NC8=O)C9=O)CC7)CC6)CC5)C4)cc3)nc12 (stereo partly drawn)
a: 65.1
